Assay Remarks: UV absorption (UV-VIS spectra in 2-propanol, 1 mg/100 ml)
Type: physicochemical
Test Parameters: 1 mg/100 ml

Molecule | Units | UV-VIS λmax
CN(C)c1ccc(C(=O)OCC(=O)CO)cc1 [Example 3] | nm | 311.0
CN(C)c1ccc(C(=O)OCC2COC(C)(C)O2)cc1 (stereo not drawn) [Example 4] | nm | 310.0
CN(C)c1ccc(C(=O)NCC(=O)CO)cc1 [Example 22] | nm | 298.0
CN(C)c1ccc(C(=O)OCC(O)CO)cc1 (stereo not drawn) [Example 5] | nm | 310.0
CN(C)c1ccc(C(=O)NCC(O)CO[Si](C)(C)C(C)(C)C)cc1 (stereo not drawn) [Example 15] | nm | 301.0
COc1ccc(/C=C/C(=O)N(C)CC(O)CO)cc1 (stereo not drawn) [Example 10b] | nm | 301.0
CN(C)c1ccc(C(=O)OCC(=O)CO[Si](C)(C)C(C)(C)C)cc1 [Example 2] | nm | 299.0
COc1ccc(/C=C/C(=O)NCC(O)CO)cc1 (stereo not drawn) [Example 10a] | nm | 298.0
N#CC(C(=O)OCC(=O)CO)=C(c1ccccc1)c1ccccc1 [Example 1b] | nm | 303.0
COc1ccc(/C=C/C(=O)NCC(O)CO[Si](C)(C)C(C)(C)C)cc1 (stereo not drawn) [Example 12] | nm | 291.0
CN(C)c1ccc(C(=O)NCC(O)CO)cc1 (stereo not drawn) [Example 10d] | nm | 301.0
CN(C)c1ccc(C(=O)OCC(O)CO[Si](C)(C)C(C)(C)C)cc1 (stereo not drawn) [Example 6] | nm | 310.0
COc1ccc(/C=C/C(=O)NCC(=O)CO)cc1 [Example 20] | nm | 294.0
COc1ccc(/C=C/C(=O)NCC(=O)CO[Si](C)(C)C(C)(C)C)cc1 [Example 17] | nm | 300.0
COc1ccc(/C=C/C(=O)OCC(=O)CO)cc1 [Example 1a] | nm | 301.0
CCCCC(CC)COc1ccc(/C=C/C(=O)NCC(=O)CO)cc1 (stereo not drawn) [Example 21] | nm | 307.5
CCCCC(CC)COc1ccc(/C=C/C(=O)OCC(=O)COC(=O)/C=C/c2ccc(OCC(CC)CCCC)cc2)cc1 (stereo not drawn) [Example 23a] | nm | 301.0
CN(C)c1ccc(C(=O)NCC(=O)CO[Si](C)(C)C(C)(C)C)cc1 [Example 19] | nm | 312.0
COc1ccc(/C=C/C(=O)OCC(=O)COC(=O)/C=C/c2ccc(OC)cc2)cc1 [Example 23] | nm | 307.0
CCCCC(CC)COc1ccc(/C=C/C(=O)NCC(O)CO)cc1 (stereo not drawn) [Example 10c] | nm | 307.0
N#CC(C(=O)OCC(=O)COC(=O)C(C#N)=C(c1ccccc1)c1ccccc1)=C(c1ccccc1)c1ccccc1 [Example 23b] | nm | 304.0

----------
Assay Remarks: UV absorption (UV-VIS spectra in 2-propanol, 1 mg/100 ml)
Assay type: physicochemical
Test Parameters: solvent 2-Propanol, c 1 mg/100 ml
Quantity Measured: UVB (280-320 nm) max. abs

Compound | Quantity Measured | Value Observed
CN(Cc1ccc(/C=C2\C(=O)C3CCC2(C)C3(C)C)cc1)CC(O)CO[Si](C)(C)C(C)(C)C (stereo not shown) | UVB (280-320 nm) max. abs | 0.545
CN(C)c1ccc(C(=O)NCC(=O)CO[Si](C)(C)C(C)(C)C)cc1 [drawing 86] | UVB (280-320 nm) max. abs | 0.713
CC12CCC(C(=O)/C1=C\c1ccc(COCC(=O)CO)cc1)C2(C)C (stereo not shown) | UVB (280-320 nm) max. abs | 0.874
CN(C)c1ccc(C(=O)NCC(O)CO[Si](C)(C)C(C)(C)C)cc1 (stereo not shown) [drawing 84] | UVB (280-320 nm) max. abs | 0.64
